pIC50: −log10 of the molar value.
Endpoint summary: pIC50, system: Insulin-like growth factor 1 receptor (Homo sapiens, UniProt P08069), multiple sources combined.
Rule: pIC50 of 6 or more gives condition met; anything lower gives condition not met.

COMPOUND | CATEGORY LABEL
O=C1Nc2ccccc2/C1=C/c1ccc(O)cc1 | condition not met
O=C(Nc1ccc(Cl)cc1)N1CCN(c2nnc(Cc3ccccc3)c3ccccc23)CC1 | condition not met
O=C1NC(=O)/C(=C\c2ccc(OCc3ccccc3Cl)cc2)S1 | condition not met
CC(Oc1cccc(-c2cn([C@H]3C[C@@H](CN4CCC4)C3)c3ncnc(N)c23)c1)c1ccccc1 (mixture of isomers) | condition not met
CCn1c(Sc2ccc(Nc3c(C#N)cnc4cc(OCCCN5CCOCC5)c(OC)cc34)cc2Cl)nc(C)c1C | condition met
COc1ccccc1Cc1nc2ccc(-c3nn([C@H]4CC[C@H](N5CCN(C(C)=O)CC5)CC4)c4ncnc(N)c34)cc2[nH]1 | condition met

Prompt: Could you verify whether the entry `Nc1nccc(-c2ccc3c(N)n[nH]c3c2)n1` shows pIC50 of no less than 6?
Completion: condition not met

Prompt: Is it the case that `COc1ccc(Cc2nnc(N3CCN(C(=O)c4ccccc4)CC3)c3ccccc23)cc1` has pIC50 reaching or exceeding 6?
Completion: condition not met

Prompt: Check the entry `CN1CCN(c2ccc(Nc3nc(N)c(C(=O)c4ccc5c(c4)OCCO5)s3)cc2)CC1` : does pIC50 equal or exceed 6?
Completion: condition not met
